The measurements presented in this section are drawn from the RNAGym collection of RNA variant scans (doi:10.7554/elife.90254).

B1: LINE1-full (parent)
chain: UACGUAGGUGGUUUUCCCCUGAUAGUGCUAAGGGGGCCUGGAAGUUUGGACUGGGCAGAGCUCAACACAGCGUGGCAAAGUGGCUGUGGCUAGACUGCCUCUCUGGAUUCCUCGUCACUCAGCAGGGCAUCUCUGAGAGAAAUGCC

variants of: B1; assay: self-cleavage, relative activity (ratio to wild type); higher = more cleavage; in vitro, sequencing; the parent is a self-cleaving ribozyme
PROPERTY_LABEL: self-cleavage

* A50G G54A | 0.16
* G32A U102A | 0.63
* A64C | 0.35
* G58A A94G | 0
* U73A U104C | 1.53
* A31G A92U | 0.91
* G8A A67C | 0
* A2U U9A | 0.86
* U52A U62C | 0.04
* G4A U100C | 1.21
* A30G A57G | 1.39
* C3A A65G | 0.29
* U14C U91C | 0.79
* G60A A94G | 0
* C63G | 0.09
* U14A U52C | 0.8
* G53C A136G | 0.36
* U46C A142G | 1.35
* U1C U134C | 0.38
* U26C C133U | 0.98
* A94U U130A | 0.23
* U112G G139A | 1.15
* C3G A79G | 1.04
* A2G U52A | 1.11
* U23A A31U | 0.37
* U14C C131A | 1.15
* A65G A140G | 0.04
* A59G A92U | 0.1
* A69C U143A | 0.07
* A107C A136G | 1.73
* U91A U130G | 1.24
* U104A U130A | 0.89
* U26A G33U | 0.62
* G40A A78G | 0.77
* U29C U85C | 0.28
* C3U A59U | 0.56
* G11A U20G | 1.05
* G8A A141G | 1.1
* A67C U108C | 0
* G11A A121U | 0.95
